# Tested on: BT-549
# assay.comment: NCI tumour cell line growth inhibition, 48 h
Active and inactive are the calls of the source. No stated cut-off is given here; in the data, active = GI50 up to about 1.1 µM and inactive = higher.
property.label: GI50

Solved entries:
compound: NNC(=O)Cn1c2ccc(Br)cc2c2nc3ccccc3nc21
GI50: > 100 µM (inactive)

compound: CSc1nc(-c2cc3c(c(SC)n2)CCCCC3)cc2c1CCCCC2
GI50: > 100 µM (inactive)

compound: CCOc1ccc(NC2=CC(=O)C(=O)c3ccccc32)cc1
GI50: 1.66 µM (inactive)

compound: Cc1ccc2c(c1)C(=O)/C(=C1/CCc3ccc(C)cc31)C2
GI50: > 100 µM (inactive)

compound: OC1COC(OCc2ccccc2)C(O)C1O (centres undefined)
GI50: > 100 µM (inactive)

Input line: Notebook: pull reported GI50 for BT-549, entry `CC(=O)N1N=C(N)CC1=O`
Output line: > 100 µM (inactive)

Input line: Query CC(C)(C)c1ccc(CN2CCN(C(c3ccccc3)c3ccc(Cl)cc3)CC2)cc1 (centres undefined) next
Output line: > 100 µM (inactive)

Input line: Query CC(C(=O)c1ccncc1)c1ccccn1 (centres undefined) next
Output line: > 100 µM (inactive)

Input line: Query `CN1CCc2c(sc3nc(Nc4ccccc4)n(N)c(=O)c23)C1` next
Output line: > 100 µM (inactive)

Input line: Query CC(C)(C)OC(=O)NC(Cc1ccc(OCc2ccccc2)cn1)C(=O)NCc1ccccc1 (centres undefined) next
Output line: 20.7 µM (inactive)
